# tested_on: PRKD2 (Homo sapiens, UniProt Q9BZL6)
# Sequence (Q9BZL6 1-878): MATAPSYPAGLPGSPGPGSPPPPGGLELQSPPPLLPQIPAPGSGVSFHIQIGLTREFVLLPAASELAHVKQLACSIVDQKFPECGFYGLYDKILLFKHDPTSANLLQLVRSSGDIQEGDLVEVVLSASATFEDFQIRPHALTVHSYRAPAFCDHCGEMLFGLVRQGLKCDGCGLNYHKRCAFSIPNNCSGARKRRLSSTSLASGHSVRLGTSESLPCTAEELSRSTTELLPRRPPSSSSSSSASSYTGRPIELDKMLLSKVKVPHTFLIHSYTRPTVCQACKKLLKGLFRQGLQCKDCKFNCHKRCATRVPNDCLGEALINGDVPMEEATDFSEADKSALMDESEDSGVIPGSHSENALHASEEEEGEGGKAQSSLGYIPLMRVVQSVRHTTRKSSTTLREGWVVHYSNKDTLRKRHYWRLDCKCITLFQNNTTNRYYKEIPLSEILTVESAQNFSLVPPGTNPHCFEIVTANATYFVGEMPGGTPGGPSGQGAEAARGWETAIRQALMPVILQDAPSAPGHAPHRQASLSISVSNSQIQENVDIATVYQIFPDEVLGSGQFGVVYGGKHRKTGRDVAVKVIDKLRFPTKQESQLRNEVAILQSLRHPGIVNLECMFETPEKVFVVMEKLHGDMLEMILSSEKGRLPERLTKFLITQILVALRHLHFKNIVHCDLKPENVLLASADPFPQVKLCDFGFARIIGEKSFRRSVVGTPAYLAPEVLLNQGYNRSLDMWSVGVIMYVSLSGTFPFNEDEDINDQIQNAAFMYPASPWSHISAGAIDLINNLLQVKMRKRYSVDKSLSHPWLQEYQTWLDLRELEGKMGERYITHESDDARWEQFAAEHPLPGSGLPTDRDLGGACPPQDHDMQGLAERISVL
# assay_name: biochemical
# Set-up: species or system HEK293/K-562/placenta mixed human extract; Kinobeads chemoproteomic competition binding, quantified by TMT LC-MS/MS, dose response up to 20 uM
quantity_kind: IC50

Task item: // lookup IC50 for `COc1ccccc1-c1n[nH]c2nc(N[C@H]3CC[C@H](NS(=O)(=O)CCC(F)(F)F)CC3)nc(OC)c12`
Reply: ≥ 20 µM
